- Experiment Description: recombinant barcode read abundance after kanamycin selection (control-corrected) (log10(CPM+1)); higher = more efficient recombination; sequences stand for … in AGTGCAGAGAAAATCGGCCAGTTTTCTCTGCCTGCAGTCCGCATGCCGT…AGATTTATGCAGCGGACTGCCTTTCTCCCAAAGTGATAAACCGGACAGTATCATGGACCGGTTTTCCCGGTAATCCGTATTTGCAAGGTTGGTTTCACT; site = the 11-nt target
For each record, write down the corresponding recombinant barcode read abundance (log10).
Lab note: record the figure alone, no unit after it.

[ask] Please look up its recombinant barcode read abundance (log10): TCGGAGTCTTGGGTTCTAACCTGTTGCGC (site CTATGACCTCA)
[reply] 0.0526

[ask] Please look up its recombinant barcode read abundance (log10): CTTCGTCCTTGGGTTCTAACCTGTTGCGT (site CTTCGTCCTAC)
[reply] 1.59

[ask] Please look up its recombinant barcode read abundance (log10): GAGAGGTCTTGGGTTCTAACCTGTTGCCT (site GAGAGGTCTAC)
[reply] 0.0681

[ask] Please look up its recombinant barcode read abundance (log10): ACATGTGCTTGGGTTCTAACCTGTTGCCT (site ACATGTGCTAG)
[reply] 1.66

[ask] Please look up its recombinant barcode read abundance (log10): TGAAAGACTTGGGTTCTAACCTGTTGCCG (site TGAAAGACTCG)
[reply] 0.762

[ask] Please look up its recombinant barcode read abundance (log10): CGATTACCTTGGGTTCTAACCTGTTGCCT (site CGATTACCTAG)
[reply] 0.264

[ask] Please look up its recombinant barcode read abundance (log10): TGAGGGGCTTGGGTTCTAACCTGTTGCCT (site TGAGGGGCTAG)
[reply] 1.24

[ask] Please look up its recombinant barcode read abundance (log10): CTATGTGCTTGGGTTCTAACCTGTTGCAT (site CTATGTGCTAT)
[reply] 0.109

[ask] Please look up its recombinant barcode read abundance (log10): GTCTCTTCTTGGGTTCTAACCTGTTGCTA (site GTCTCGTCTAA)
[reply] 0.0282

[ask] Please look up its recombinant barcode read abundance (log10): TGGCGTCCTTGGGTTCTAACCTGTTGCCT (site TGGCGTCCTAG)
[reply] 0.963

----------
- Experiment Description: recombinant UMI read abundance after kanamycin selection (control-corrected) (log10(CPM+1)); higher = more efficient recombination; extreme values may be limits of the assay; sequences stand for … in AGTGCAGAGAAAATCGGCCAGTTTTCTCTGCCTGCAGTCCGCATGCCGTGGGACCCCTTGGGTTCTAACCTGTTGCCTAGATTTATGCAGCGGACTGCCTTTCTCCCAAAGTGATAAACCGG…AGGTTGGTTTCACT; site = the 11-nt donor
Please mark rule met if the recorded recombinant UMI read abundance (log10) is equal to or greater than 0.02, and rule not met if it falls below.

[ask] Determine whether this sequence has recombinant UMI read abundance (log10) no lower than 0.02: CCCATACCATGGACCGGTTTTCCCGGTAATCCGTATTTGTC (site CCCATAGCTGA)
[reply] rule not met

[ask] Determine whether this sequence has recombinant UMI read abundance (log10) no lower than 0.02: TCATTCTCATGGACCGGTTTTCCCGGTAATCCGTATTTGCA (site TCATTCTCTTG)
[reply] rule met

[ask] Determine whether this sequence has recombinant UMI read abundance (log10) no lower than 0.02: CTAATTACATGGACCGGTTTTCCCGGTAATCCGTATTTGCA (site CTAATTACTTG)
[reply] rule met

[ask] Determine whether this sequence has recombinant UMI read abundance (log10) no lower than 0.02: TAGTGAGCATGGACCGGTTTTCCCGGTAATCCGTATTTGGG (site TATTGAGCTCC)
[reply] rule not met

[ask] Determine whether this sequence has recombinant UMI read abundance (log10) no lower than 0.02: TACAGTCCATGGACCGGTTTTCCCGGTAATCCGTATTTGTA (site TATAGTCCTTA)
[reply] rule not met

[ask] Determine whether this sequence has recombinant UMI read abundance (log10) no lower than 0.02: GACAAACCATGGACCGGTTTTCCCGGTAATCCGTATTTGTT (site GACAAACCTAC)
[reply] rule not met

[ask] Determine whether this sequence has recombinant UMI read abundance (log10) no lower than 0.02: TAATTCCCATGGACCGGTTTTCCCGGTAATCCGTATTTGCT (site AAATTCCCTAG)
[reply] rule met

[ask] Determine whether this sequence has recombinant UMI read abundance (log10) no lower than 0.02: GTGGCGGCATGGACCGGTTTTCCCGGTAATCCGTATTTGTG (site GTGGCGGCTCA)
[reply] rule met

[ask] Determine whether this sequence has recombinant UMI read abundance (log10) no lower than 0.02: CGATCATCATGGACCGGTTTTCCCGGTAATCCGTATTTGGT (site CGATCATCTAG)
[reply] rule met

[ask] Determine whether this sequence has recombinant UMI read abundance (log10) no lower than 0.02: GGCCGCCCATGGACCGGTTTTCCCGGTAATCCGTATTTGTT (site GGCCTCCCTAA)
[reply] rule not met

[ask] Determine whether this sequence has recombinant UMI read abundance (log10) no lower than 0.02: TCCTACGCATGGACCGGTTTTCCCGGTAATCCGTATTTGCC (site TCCTACGCTGG)
[reply] rule not met

[ask] Determine whether this sequence has recombinant UMI read abundance (log10) no lower than 0.02: GATTTCGCATGGACCGGTTTTCCCGGTAATCCGTATTTGGG (site GATTTCGCTCC)
[reply] rule not met

[ask] Determine whether this sequence has recombinant UMI read abundance (log10) no lower than 0.02: TGTACACCATGGACCGGTTTTCCCGGTAATCCGTATTTGAA (site TGTACACCTAT)
[reply] rule not met

[ask] Determine whether this sequence has recombinant UMI read abundance (log10) no lower than 0.02: TAGGAATCATGGACCGGTTTTCCCGGTAATCCGTATTTGCC (site TAGGAATCTTG)
[reply] rule met

[ask] Determine whether this sequence has recombinant UMI read abundance (log10) no lower than 0.02: GCGTAGCCATGGACCGGTTTTCCCGGTAATCCGTATTTGGG (site GCGGAGCCTCC)
[reply] rule not met

[ask] Determine whether this sequence has recombinant UMI read abundance (log10) no lower than 0.02: CACGGCGCATGGACCGGTTTTCCCGGTAATCCGTATTTGTT (site CACGGCACTAA)
[reply] rule met

[ask] Determine whether this sequence has recombinant UMI read abundance (log10) no lower than 0.02: GCTACAGCATGGACCGGTTTTCCCGGTAATCCGTATTTGCC (site GCTACGGCTGG)
[reply] rule met

[ask] Determine whether this sequence has recombinant UMI read abundance (log10) no lower than 0.02: AGATCTACATGGACCGGTTTTCCCGGTAATCCGTATTTGTG (site ATATCTACTCA)
[reply] rule not met
